B1: tRNA (parent)
chain: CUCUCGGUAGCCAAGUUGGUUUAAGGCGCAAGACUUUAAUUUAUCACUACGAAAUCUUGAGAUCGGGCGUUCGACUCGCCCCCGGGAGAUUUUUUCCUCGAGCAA

variants of: B1; test: nonsense suppression (GFP-seq) (ratio to wild type); higher = more function; SUP4oc tRNA, yeast GFP reporter sort-seq
Variants at the floor of the assay were thinned out.
As shown below, each of these variants has a reported nonsense suppression value.
The reply should be a number, written without any unit.

Example variants with recorded nonsense suppression:
## Task Given the entry CUCUCGGUAGCCAAGUUGGUUUAAGGCGCAAGACUUUAAUUUAUCACUACGAAAUCUUAAGAUCGGGCGUUCGAAUCGCCCCCGGGAGAUUUUUUCCUCGAGCAA [G59A C75A] , report its measured nonsense suppression.
## Result 0.717

## Task Given the entry CUCUCGGUAGCCAAGUUGGUUAAAGGCGCAAGACUUUAAUUUAUCACUACGAAAUCUUGAGAUCGGGCGUUCGAUUCGCCCCCGGGAGAUUUUUUCCUCGAGCAA [U22A C75U] , report its measured nonsense suppression.
## Result 1.15

## Task Given the entry CUCUCGGUAGCCAAGCUGGUUUAAGGCGCAAGACUUUAAUUUAUCACUACGAAAUCUUGAGAUCGGGUGUUCGACUCGCCCCCGGGAGAUUUUUUCCUCGAGCAA [U16C C68U] , report its measured nonsense suppression.
## Result 1.03

## Task Given the entry CUCUCGGUAGCCAAGUUGGUUUAAGGCGCAAGACUUUAAUUUAUCACUACGAAUUCUUGAGAUCGGGCGUUCGACUCGCCCCCGUGAGAUUUUUUCCUCGAGCAA [A54U G85U] , report its measured nonsense suppression.
## Result 1.01

## Task Given the entry CUCUCGGUGGCCAAGUUGGUUUAAGGCGCGAGACUUUAAUUUAUCACUACGAAAUCUUGAAAUCGGGCGUUCGACUCGCCCCCGGGAGAUUUUUUCCUCGAGCAA [A9G A30G G61A] , report its measured nonsense suppression.
## Result 0.291

Further cases:
## Task Given the entry CUCUCGGUAGCAAAGUUGGUUUAAGGCGCAAGACUUUAAUUUAUCACUACGAAAUCUUGAGAUCGGGCGUUCGACUCACCCCCGGGAGAUUUUUUCCUCGAGCAA [C12A G78A] , report its measured nonsense suppression.
## Result 0.045

## Task Given the entry CUCUCGGUAGCCUAGUUGGUUUAAGGCGCAAGACUUUAAUUUAUCACUACGAAAUCUUGAGAUCGGGCGUUCGACUCGCCCCCGGAAGAUUUUUUCCUCGAGCAA [A13U G86A] , report its measured nonsense suppression.
## Result 0.0315

## Task Given the entry CUCCCGGUAGCCAAGUUGGUUUAAGGCGCAAGACUUUAAUUUAUCACUACGAAAUCUUGAGAGCGGGCGUUCGACUCGCCCCCGGGAGAUUUUUUCCUCGAGCAA [U4C U63G] , report its measured nonsense suppression.
## Result 0.0946

## Task Given the entry CUCUCGGUAGCCAAGUUGGUUUAAGGCGCAAGACUUUAAUUUAUCACUACGAAGUCUUGAGAUCGGGCGUUCAACUCGCCCCCGGGAGAUUUUUUCCUCGAGCAA [A54G G73A] , report its measured nonsense suppression.
## Result 0.122

## Task Given the entry CUCGCGGUAGCCAAGUUGGUUUAAGGCGCAAGACUUUAAUUUAUCACUACGAAAUCUUGAGAUCGGGCGUUCGACACGCCCCCGGGAGAUUUUUUCCUCGAGCAA [U4G U76A] , report its measured nonsense suppression.
## Result 0.109

## Task Given the entry CUCUCGGUAGCCAAGUUGGUAUAAGGCGCAAGACUUUAAUUUAUCACUACGAAAUCUUGAGAUCGGGCGUUCGACUCGCCCCCGAGAGAUUUUUUCCUCGAGCAA [U21A G85A] , report its measured nonsense suppression.
## Result 1.06

## Task Given the entry CUCUCGGUAGCCAAGAUGGUUUAAGGCGCAAGACUUUAAUUUAUCACUACGAAAUCUUGAGAUCGGGCGUUCGACUCUCCCCCGGGAGAUUUUUUCCUCGAGCAA [U16A G78U] , report its measured nonsense suppression.
## Result 0.188

## Task Given the entry CUCUCGGUAGCCAAGUUGGUUUAAGGCGCAAGACUUUAAUUUAUCACUACGAAAUCUUGAGAUCGGGCGUUCGACUCGCCCCCGGGACAUUUUUUCCUCGAGCAA [G88C] , report its measured nonsense suppression.
## Result 0.028

## Task Given the entry CUCUCGGUAGCCAAGUUGGUUUAAGGCGCAAGACUUUAAUUUAUCACUACGAAAUCUUGAGAUCGGGCGUUCGACUCGCCCCCGAGUGAUUUUUUCCUCGAGCAA [G85A A87U] , report its measured nonsense suppression.
## Result 0.19

## Task Given the entry CUCUCGGUAGCCAAGUUGGUUUUAGGCGCAAGACUUUAAUUUAUCACUACGAAAUCUUGGGAUCGGGCGUUCGACUCGCCCCCGGGAGAUUUUUUCCUCGAGCAA [A23U A60G] , report its measured nonsense suppression.
## Result 0.0537

## Task Given the entry CUCUCGGUCGCCAAGUUGGUUUAAGGCGCAAGACUUUAAUUUAUCACUACGAAAUCUUGAGAUCGGGCGUUCGAAUCGCCCCCGGGAGAUUUUUUCCUCGAGCAA [A9C C75A] , report its measured nonsense suppression.
## Result 0.938

## Task Given the entry CUCUCGGUAGCCAAUUUGGCUUAAGGCGCAAGACUUUAAUUUAUCACUACGAAAUCUUGAGAUCGGGCGUUCGACUCGCCCCCGGGAGAUUUUUUCCUCGAGCAA [G15U U20C] , report its measured nonsense suppression.
## Result 0.0275

## Task Given the entry CUCUUGGUAGCCCAGUUGGUUUAAGGCGCAAGACUUUAAUUUAUCACUACGAAAUCUUGAGAUCGGGCGUUCGACUCGCCCCCGGGAGAUUUUUUCCUCGAGCAA [C5U A13C] , report its measured nonsense suppression.
## Result 0.0679

## Task Given the entry CUCUCGGUAGCCAAGUUGGUUUAAGGCGCAAGACUUUAAUUUAUCACUACGAAUUCUUGAGAUCGGGCGUUCGACCCGCCCCCGGGAGAUUUUUUCCUCGAGCAA [A54U U76C] , report its measured nonsense suppression.
## Result 1.08

## Task Given the entry CUCUCGGUAGCCAAGUGGGUUUAAGGCGCAAGACUUUAAUUUAUCACUACGAAAUCUUGAGAUCGGGCGUUCGACUCGCCCCCGGGGGAUUUUUUCCUCGAGCAA [U17G A87G] , report its measured nonsense suppression.
## Result 0.752
